Biological target: human ProRS (prolyl tRNA synthetase moiety of glutamyl prolyl tRNA synthetase) (Homo sapiens)
Sequence (P07814 1007-1512 limits assumed): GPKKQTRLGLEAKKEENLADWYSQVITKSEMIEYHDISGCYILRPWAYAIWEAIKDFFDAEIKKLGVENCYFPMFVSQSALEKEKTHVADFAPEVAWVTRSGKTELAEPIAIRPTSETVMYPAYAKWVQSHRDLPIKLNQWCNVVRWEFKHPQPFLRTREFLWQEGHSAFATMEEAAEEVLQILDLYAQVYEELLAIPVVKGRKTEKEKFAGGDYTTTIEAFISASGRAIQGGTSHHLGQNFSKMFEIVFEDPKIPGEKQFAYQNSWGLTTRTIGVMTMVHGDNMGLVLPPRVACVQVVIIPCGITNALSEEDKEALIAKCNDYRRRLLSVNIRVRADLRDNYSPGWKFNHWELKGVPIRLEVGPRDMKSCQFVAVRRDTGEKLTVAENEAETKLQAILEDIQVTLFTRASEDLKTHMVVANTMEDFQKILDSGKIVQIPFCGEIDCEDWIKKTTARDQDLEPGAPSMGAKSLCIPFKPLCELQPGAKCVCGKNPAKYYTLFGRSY
Structures can show the parent of a compound that is named as a salt.
Task for the reader: assign each of the following compounds its reported IC50.
Answers are plain numbers, in µM.

# COMPOUND, OBSERVED MEASUREMENT
measured = [
    ("Cc1cc(-c2cccc(F)c2)nc2c(=O)n(CC(=O)C[C@H]3NCCC[C@@H]3O)cnc12 [Example 14, dihydrochloride]", 0.007),
    ("Cc1cc(C)c2ncn(CC(=O)C[C@@H]3CCCCN3)c(=O)c2n1.Cl.Cl [Example 10, dihydrochloride]", 0.773),
    ("Cc1cc(C(C)C)cc2c(=O)n(CC(=O)C[C@@H]3CCCCN3)cnc12 [Example 18, hydrochloride]", 0.14),
    ("O=c1c2nc(-c3ccc(F)c(F)c3)ccc2ncn1C[C@@H](O)C[C@H]1NCCC[C@@H]1O [Example 25, dihydrochloride]", 0.025),
    ("Cc1cc(-c2cccc(Cl)c2)nc2c(=O)n(CC(=O)C[C@H]3NCCC[C@@H]3O)cnc12 [Example 16, bis(2,2,2-trifluoroacetate)]", 0.003),
]

Please give the measured IC50 for this compound: Cc1cc(-c2cccc(F)c2)nc2c(=O)n(C[C@@H](O)C[C@H]3NCCC[C@@H]3O)cnc12 [Example 32, dihydrochloride]
0.079
